pIC50: −log10 of the molar value.
pIC50 tested on human JAK1 (a.a. 837-1142) (Homo sapiens, UniProt P23458): recorded values

Example entries and their recorded answers appear below.
mol-smiles | experimental-value
N#CCC1(n2cc(-c3ncnc4[nH]ccc34)cn2)CN(C2CCN(C(=O)C3Cc4ccccc4C3)CC2)C1 | 7.70 to 8.30
CC(C)(C)C(=O)Nc1cc(CN2CCC(N3CC(CC#N)(n4cc(-c5ncnc6[nH]ccc56)cn4)C3)CC2)ccn1 | 7.70 to 8.30

Q: Query for human JAK1 (a.a. 837-1142) (Homo sapiens, UniProt P23458): what pIC50 does the record show for N#CCC1(n2cc(-c3ncnc4[nH]ccc34)cn2)CN(C2CCN(Cc3ccc(F)cc3F)CC2)C1 ?
A: 7.70 to 8.30
